tgt: human V2 receptor (Homo sapiens)
assay.details: In-vitro receptor binding assay (3H-arginine-8-vasopressin), V2
measurement.context: @ 1 μM; read-out: Receptor Binding V2 (% Inh. @ concentration in μM)
outcome.measure: inhibition at 1 µM (%)

Use these answered entries as a reference point.
Query inhibition at 1 µM on human V2 receptor (Homo sapiens) for Cc1ccn(-c2ccc(C(=O)N3CCC4(C=CCCC4)Cc4ccccc43)cc2-n2ccc(C)n2)n1 (centres unmarked) [Compound 151]
20

O=C(c1ccc(OC2CCCCC2)cc1)N1CCC2(C=CCCC2)Cc2ccccc21 (centres unmarked) [Compound 185] , same question.
42

[I] CCCCCCCOc1ccc(C(=O)N2CCC3(C=CCCC3)Cc3ccccc32)cc1 (centres unmarked) [Compound 76]
[II] COC(=O)C1=CC2(CC1)CCN(C(=O)c1ccc(-n3ccc(C)n3)c(N)c1)c1ccccc1C2 (centres unmarked) [Compound 211]
Compare the recorded inhibition at 1 µM of I and II ; state which is larger. Bench note: the answer is the label of the chosen record.
II

[P] O=C(c1ccc(OC(F)(F)F)cc1)N1CCC2(C=CCCC2)Cc2ccccc21 (centres unmarked) [Compound 77]
[Q] CC(=O)c1ccn(-c2ccc(C(=O)N3CCC4(C=CCCC4)Cc4ccccc43)cc2F)c1 (centres unmarked) [Compound 177]
Pick one, P or Q : lowest reported inhibition at 1 µM. Bench note: the answer is the label of the chosen record.
P

[P] COc1cc(N)ccc1C(=O)N1CCC2(C=C(C(=O)NCCN(C)C)CC2)Cc2ccccc21 (centres unmarked) [Compound 194]
[Q] Nc1ccc(C(=O)N2CCC3(C=CCCC3)Cc3ccccc32)cc1 (centres unmarked) [Compound 68]
Compare the recorded inhibition at 1 µM of P and Q ; state which is larger. Bench note: the answer is the label of the chosen record.
P

---

tgt: UniProtKB P30518
assay.details: In-vitro receptor binding assay (3H-arginine-8-vasopressin), V2
outcome.measure: IC50 (µM)

Given the entry Cc1cccc(C(=O)Nc2ccc(C(=O)N3CCC4(C=CCCC4)Cc4ccccc43)cc2)c1 (centres unmarked) , report its measured IC50.
0.38

[I] COC(=O)CNC(=O)C1=CC2(CC1)CCN(C(=O)c1ccc(NC(=O)c3ccccc3-c3ccccc3)cc1)c1ccccc1C2 (centres unmarked)
[II] O=C(NCCO)C1=CC2(CC1)CCN(C(=O)c1ccc(NC(=O)c3ccccc3-c3ccccc3)cc1)c1ccccc1C2 (centres unmarked)
Pick one, I or II : lowest reported IC50. Bench note: the answer is the label of the chosen record.
II

[A] O=C(Nc1ccc(C(=O)N2CCC3(C=CCCC3)Cc3ccccc32)c(Cl)c1)c1ccccc1F (centres unmarked)
[B] COc1cc(NC(=O)c2cc(F)ccc2C)ccc1C(=O)N1CCC2(C=C(C(=O)O)CC2)Cc2ccccc21 (centres unmarked)
[C] COC(=O)c1ccc(C(=O)N2CCC3(C=CCCC3)Cc3ccccc32)cc1 (centres unmarked)
[D] Cc1ccc(F)cc1C(=O)Nc1ccc(C(=O)N2CCC3(C=C(C(=O)NCCN(C)C)CC3)Cc3ccccc32)c(Cl)c1 (centres unmarked)
Please give the order of these compounds when sorted by IC50, largest value leading. Kindly provide the labels arranged according to the requested ordering.
C, A, B, D
(C: 10 µM, A: 1 µM, B: 0.11 µM, D: 0.052 µM)

---

tgt: V1a (Homo sapiens)
assay.details: V1a vasopressin receptor functional activity (inhibition of vasopressin-induced intracellular calcium, FLIPR, V1a-HEK cells)
Type: cell-based
Parameters: expressed in transfected cells
measurement.context: HEK-293 cells transfected with human V1a receptor; vasopressin challenge
outcome.measure: IC50

Use these answered entries as a reference point.
Given the entry CC(=O)N(C)CC1=CC2(CC1)CCN(C(=O)c1ccc(NC(=O)c3ccccc3-c3ccccc3)cc1)c1ccccc1C2 (stereo not drawn) , report its measured IC50.
< 0.01 µM

CNCC1=CC2(CC1)CCN(C(=O)c1ccc(NC(=O)c3ccccc3-c3ccccc3)cc1)c1ccccc1C2 (stereo not drawn) , same question.
< 0.01 µM

Others:
Given the entry O=C(c1ccc(Cl)c(Cl)c1)N1CCC2(C=CCCC2)Cc2ccccc21 (stereo not drawn) , report its measured IC50.
> 1 µM

---

tgt: human V2 receptor (Homo sapiens, UniProt P30518)
Sequence (P30518 whole entry): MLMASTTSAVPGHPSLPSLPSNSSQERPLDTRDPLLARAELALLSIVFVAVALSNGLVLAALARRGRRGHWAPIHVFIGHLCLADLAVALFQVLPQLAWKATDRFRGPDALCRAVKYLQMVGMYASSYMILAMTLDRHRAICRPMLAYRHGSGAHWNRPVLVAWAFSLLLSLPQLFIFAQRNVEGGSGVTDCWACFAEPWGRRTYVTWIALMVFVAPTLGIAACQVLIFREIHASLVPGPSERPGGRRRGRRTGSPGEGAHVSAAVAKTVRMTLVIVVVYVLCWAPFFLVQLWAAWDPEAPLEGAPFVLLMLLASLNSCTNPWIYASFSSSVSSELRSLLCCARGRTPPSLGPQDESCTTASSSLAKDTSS
assay.details: In-vitro receptor binding assay (3H-arginine-8-vasopressin), V2
measurement.context: @ 0.1 μM; read-out: Receptor Binding V2 (% Inh. @ concentration in μM)
outcome.measure: inhibition at 0.1 µM (%)

Use these answered entries as a reference point.
Query inhibition at 0.1 µM on human V2 receptor (Homo sapiens, UniProt P30518) for Cc1ccc(F)cc1C(=O)Nc1ccc(C(=O)N2CCC3(C=C(CO)CC3)Cc3ccccc32)c(Cl)c1 (stereo not shown)
66

COc1cc(C(=O)N2CC[C@@]3(C=C(C(=O)NCCN(C)C)CC3)Cc3ccccc32)ccc1-n1ccc(CO)c1 , same question.
0

O=C(Nc1ccc(C(=O)N2CCC3(C=C(C(=O)N(CCN4CCOCC4)CCN4CCOCC4)CC3)Cc3ccccc32)cc1)c1ccccc1-c1ccccc1 (stereo not shown) , same question.
39

O=C(NCCN1CCCCC1)C1=CC2(CC1)CCN(C(=O)c1ccc(NC(=O)c3ccccc3F)cc1)c1ccccc1C2 (stereo not shown) , same question.
23

Cc1ccc(F)cc1C(=O)Nc1ccc(C(=O)N2CCC3(C=C(C(=O)O)CC3)Cc3ccccc32)c(Cl)c1 (stereo not shown) , same question.
67

[P] CNCC1=CC2(CC1)CCN(C(=O)c1ccc(NC(=O)c3cc(F)ccc3C)cc1Cl)c1ccccc1C2 (stereo not shown)
[Q] O=C(O)c1ccn(-c2ccc(C(=O)N3CCC4(C=CCCC4)Cc4ccccc43)cc2)c1 (stereo not shown)
Compare the recorded inhibition at 0.1 µM of P and Q ; state which is larger. Bench note: the answer is the label of the chosen record.
P
(P: 17%, Q: 2%)

[A] CN(C)CCNC(=O)C1=CC2(CC1)CCN(C(=O)c1ccc(NC(=O)c3ccccc3F)cc1)c1ccccc1C2 (stereo not shown)
[B] CN(C)CCNC(=O)C1=CC2(CC1)CCN(C(=O)c1ccc(-n3ccc(C=O)c3)cc1)c1ccccc1C2 (stereo not shown)
Compare the recorded inhibition at 0.1 µM of A and B ; state which is larger. Bench note: the answer is the label of the chosen record.
A

[P] O=C(NCCN1CCOCC1)C1=CC2(CC1)CCN(C(=O)c1ccc(NC(=O)c3ccccc3F)cc1)c1ccccc1C2 (stereo not shown)
[Q] COCCN1CCN(CC2=CC3(CC2)CCN(C(=O)c2ccc(NC(=O)c4cc(F)ccc4C)cc2Cl)c2ccccc2C3)CC1 (stereo not shown)
[R] O=CC1=C[C@@]2(CC1)CCN(C(=O)c1ccc(NC(=O)c3ccccc3F)cc1Cl)c1ccccc1C2
[S] COc1cc(C(=O)N2CC[C@]3(C=C(C(=O)NCCN(C)C)CC3)Cc3ccccc32)ccc1-n1ccc(CO)c1
Please give the order of these compounds when sorted by inhibition at 0.1 µM, largest value leading. Kindly provide the labels arranged according to the requested ordering.
Q, P, R, S
(Q: 65%, P: 18%, R: 9%, S: 0%)

---

tgt: V1a (Homo sapiens, UniProt P37288)
Sequence (P37288 whole entry): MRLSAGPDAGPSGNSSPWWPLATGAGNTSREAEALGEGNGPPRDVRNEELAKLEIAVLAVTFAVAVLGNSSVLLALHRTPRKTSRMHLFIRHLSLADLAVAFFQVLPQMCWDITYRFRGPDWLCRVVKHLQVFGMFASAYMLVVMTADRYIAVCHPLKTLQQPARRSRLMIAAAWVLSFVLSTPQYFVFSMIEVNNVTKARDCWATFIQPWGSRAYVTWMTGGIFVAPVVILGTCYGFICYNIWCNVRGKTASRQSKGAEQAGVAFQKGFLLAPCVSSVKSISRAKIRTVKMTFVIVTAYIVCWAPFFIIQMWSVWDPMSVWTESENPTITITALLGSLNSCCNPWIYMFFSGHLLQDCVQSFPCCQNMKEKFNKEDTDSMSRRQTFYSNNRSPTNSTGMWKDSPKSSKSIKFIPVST
assay.details: In-vitro receptor binding assay (3H-arginine-8-vasopressin), V1a
outcome.measure: IC50 (µM)

Query IC50 on V1a (Homo sapiens, UniProt P37288) for Cc1ccc(F)cc1C(=O)Nc1ccc(C(=O)N2CCC3(C=C(C(=O)NCCCN4CCCC4)CC3)Cc3ccccc32)cc1 (stereo not shown)
0.016

[1] CSc1cccc(C(=O)Nc2ccc(C(=O)N3CCC4(C=CCCC4)Cc4ccccc43)cc2)c1 (stereo not shown)
[2] Cc1ccc(C(=O)N2CCC3(C=CCCC3)Cc3ccccc32)cc1 (stereo not shown)
[3] O=C(Nc1ccc(C(=O)N2CCC3(C=CCCC3)Cc3ccccc32)cc1)c1c(Cl)cccc1Cl (stereo not shown)
Please give the order of these compounds when sorted by IC50, largest value leading. Kindly provide the labels arranged according to the requested ordering.
2, 3, 1

---

tgt: V1a (Homo sapiens)
assay.details: In-vitro receptor binding assay (3H-arginine-8-vasopressin), V1a
outcome.measure: IC50 (µM)

Given the entry COC(=O)c1ccc(C(=O)N2CCC3(C=CCCC3)Cc3ccccc32)cc1 (stereo not shown) [Compound 54] , report its measured IC50.
0.33

[A] O=C(NCCN1CCCC1)C1=CC2(CC1)CCN(C(=O)c1ccc(NC(=O)c3ccccc3-c3ccccc3)cc1)c1ccccc1C2 (stereo not shown) [Compound 135]
[B] COc1cc(C(=O)N2CCC3(C=C(C(=O)NCCN(C)C)CC3)Cc3ccccc32)ccc1-n1ccc(C=O)c1 (stereo not shown) [Compound 189]
Pick one, A or B : lowest reported IC50. Bench note: the answer is the label of the chosen record.
A
(A: 0.013 µM, B: 0.045 µM)

[1] COC(=O)C1=CC2(CC1)CCN(C(=O)c1ccc(NC(=O)c3cc(F)ccc3F)cc1)c1ccccc1C2 (stereo not shown) [Compound 218]
[2] Cc1ccccc1C(=O)Nc1ccc(C(=O)N2CCC3(CCCCC3)Cc3ccccc32)cc1 [Compound 28]
[3] CCCCOc1ccc(C(=O)N2CCC3(C=CCCC3)Cc3cc(Cl)c(Cl)cc32)cc1 (stereo not shown) [Compound 73]
[4] O=C(O)CNC(=O)C1=CC2(CC1)CCN(C(=O)c1ccc(NC(=O)c3ccccc3-c3ccccc3)cc1)c1ccccc1C2 (stereo not shown) [Compound 10]
Task for the reader: rank each entry by its IC50, from the minimum upward. Kindly provide the labels arranged according to the requested ordering.
4, 1, 3, 2
(4: 0.024 µM, 1: 0.046 µM, 3: 0.09 µM, 2: 0.25 µM)

Source of measurements: patent US7691844B2
